target: T1, human CD47 on cells (human, UniProt Q08722 19-323); experiment: flow cytometry, blocking of human SIRPα binding to CHO-K1/huCD47 cells
T1 construct: also called CHO-K1/huCD47; human CD47 over-expressed in CHO-K1 cells
measurement.name: IC50 (read off the curve)

Report measured IC50 (read off the curve); entry is 112E5D9 (antibody, V domains shown, purified murine anti-CD47 hybridoma antibody; same VH and VL as 112E5F2 and 112E5H7; also called 10-112E5D9) VH: QVQLQQSGPQLVRPGASVKISCKASGYSFTNNWMHWMKQRPGQGLEWIGMIDPSDSETRLNQQFRDKATLTVDKTSSTAYMQLSSPTSEDSAVYYCARLGRYYFDYWGLGTTLTVSS VL: NIVMTQSPKSMSVSVGERVTMNCRASEIVGTYVSWYQQKPEQSPKLLIYGAFNRYTGVPDRFTGSRSGTDFSLNISNVQAEDLADYLCGQSYDSPYTFGGGTKLEIK
~4 nM

Please look at this binder and report its IC50 (read off the curve): 107F11B11 (antibody, V domains shown, purified murine anti-CD47 hybridoma antibody; same VH and VL as 107F11C4 and 107F11F10; also called 07-107F11B11) VH: EVQLQQSGAEFVKPGASVKLSCTASGFNIEDTYMHWVKQRPEQGLEWIGMIDPANGKTKYGPRFQDKATVTADTSSNTANLQLSSLTSEDTAVYYCADGIGYYVGAMDYWGQGTSVTVSS VL: DIQMNQSPSSLSASLGDTITITCHASQNINVWLSWYQQKPGNIPKLLIYKASNLHTGVPSRFSGSGSGTGFTLTISSLQPEDIATYYCQQGHSYPYTFGGGTKLEIK
~2 nM

Tell me IC50 (read off the curve) reported for 108C10A6 (antibody, V domains shown, also called murine anti-CD47 antibody 108C10A6; 108C10A6/108C10F5) VH: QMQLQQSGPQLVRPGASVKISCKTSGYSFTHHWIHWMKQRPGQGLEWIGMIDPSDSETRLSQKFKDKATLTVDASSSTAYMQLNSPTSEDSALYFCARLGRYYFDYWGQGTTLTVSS VL: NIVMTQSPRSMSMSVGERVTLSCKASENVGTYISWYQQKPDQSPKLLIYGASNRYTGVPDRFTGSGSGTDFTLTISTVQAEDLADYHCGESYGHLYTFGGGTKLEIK
~1 nM

Provide one value: measured IC50 (read off the curve) of 55F2C4 (antibody, V domains shown, also called 01-55F2C4) VH: QVQLQQSGPQLVRPGASVKISCKASGYSFTNYWMHWMKQRPGQGLEWIGMIDPSDSETRLNQQFKDKATLAVDKSSSTAYMQLSSPTSEDSAVYYCARLGRYYFDYWGQGTTLTVSS VL: NIVMTQSPKSMYVSVGERVTLICRASEIVGTYVSWYQQKPEQSPKLLIYGASNRYTGVPDRFTGSRSATDFSLTISNVQAEDLADYLCGQSYDSPYTFGGGTKLEIK
~5 nM
